# targetUnderTest: P2X purinoceptor 2 (Rattus norvegicus)
# Sequence (P49653 whole entry): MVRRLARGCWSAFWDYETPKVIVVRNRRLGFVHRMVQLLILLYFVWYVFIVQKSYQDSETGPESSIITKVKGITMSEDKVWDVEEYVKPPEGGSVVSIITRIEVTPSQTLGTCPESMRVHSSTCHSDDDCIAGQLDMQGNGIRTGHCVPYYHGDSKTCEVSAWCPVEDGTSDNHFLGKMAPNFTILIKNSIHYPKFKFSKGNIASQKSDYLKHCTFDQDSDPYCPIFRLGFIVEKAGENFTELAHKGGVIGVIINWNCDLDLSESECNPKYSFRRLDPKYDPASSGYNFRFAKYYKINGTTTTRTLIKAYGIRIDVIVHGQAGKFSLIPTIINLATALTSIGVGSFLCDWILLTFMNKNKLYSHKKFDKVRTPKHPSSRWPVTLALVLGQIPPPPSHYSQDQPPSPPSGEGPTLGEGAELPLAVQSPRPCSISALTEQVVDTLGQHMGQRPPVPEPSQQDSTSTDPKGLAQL
# experimentSummary: Antagonist activity against rat P2X2 receptor expressed in Xenopus laevis oocyte assessed as inhibition of ATP-induced inward current by two-electrode voltage-clamp electrophysiology
quantityName: IC50 (nM)

Example cases with answers are listed next.
molecule: Nc1c(S(=O)(=O)O)cc(Nc2ccc(Nc3nc(O)nc(O)n3)cc2)c2c1C(=O)c1ccccc1C2=O
targetUnderTest: P2X purinoceptor 2 (Rattus norvegicus)
IC50 [nM]: 197
--
molecule: Nc1c(S(=O)(=O)O)cc(Nc2ccccc2C(=O)O)c2c1C(=O)c1ccccc1C2=O
targetUnderTest: P2X purinoceptor 2 (Rattus norvegicus)
IC50 [nM]: 1000
--
molecule: Nc1c(S(=O)(=O)O)cc(Nc2cc(Cl)ccc2C(=O)O)c2c1C(=O)c1ccccc1C2=O
targetUnderTest: P2X purinoceptor 2 (Rattus norvegicus)
IC50 [nM]: 1000

(1) Nc1c(S(=O)(=O)O)cc(Nc2ccc(Cl)cc2C(=O)O)c2c1C(=O)c1ccccc1C2=O
(2) Nc1c(S(=O)(=O)O)cc(Nc2ccc(S(=O)(=O)O)c(Nc3nc(O)nc(O)n3)c2)c2c1C(=O)c1ccccc1C2=O
Decide: 1 or 2 , by lowest recorded IC50. Answer = label.
2
(2: 300 nM, 1: 1000 nM)

(P) Cc1c(N)cccc1Nc1cc(S(=O)(=O)O)c(N)c2c1C(=O)c1ccccc1C2=O
(Q) Nc1c(S(=O)(=O)O)cc(Nc2cccc(Cl)c2)c2c1C(=O)c1ccccc1C2=O
Which entry has a larger number for IC50, P or Q ? Answer = label.
P

====

# targetUnderTest: P2Y purinoceptor 12 (Homo sapiens, UniProt Q9H244)
# Sequence (Q9H244 whole entry): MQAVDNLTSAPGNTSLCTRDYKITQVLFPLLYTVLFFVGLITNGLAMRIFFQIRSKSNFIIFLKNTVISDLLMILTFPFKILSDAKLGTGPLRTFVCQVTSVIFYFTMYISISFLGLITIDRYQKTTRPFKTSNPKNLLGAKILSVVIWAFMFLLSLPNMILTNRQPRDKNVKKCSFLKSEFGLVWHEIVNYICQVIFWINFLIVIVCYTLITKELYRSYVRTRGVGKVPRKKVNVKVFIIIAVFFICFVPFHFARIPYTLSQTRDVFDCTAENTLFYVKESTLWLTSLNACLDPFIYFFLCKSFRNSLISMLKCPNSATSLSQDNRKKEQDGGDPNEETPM
quantityName: Ki (µM)

smilesCode: COc1cccc(Nc2cc(S(=O)(=O)O)c(N)c3c2C(=O)c2ccccc2C3=O)c1
quantityName: Ki
valueObserved: 10
--
smilesCode: Nc1c(S(=O)(=O)O)cc(Nc2ccc(Nc3nc(Cl)nc(Nc4cccc(S(=O)(=O)O)c4)n3)c(S(=O)(=O)O)c2)c2c1C(=O)c1ccccc1C2=O
quantityName: Ki
valueObserved: 0.68
--
smilesCode: Cc1cccc(Nc2cc(S(=O)(=O)O)c(N)c3c2C(=O)c2ccccc2C3=O)c1
quantityName: Ki
valueObserved: 10

====

# experimentSummary: Selectivity ratio of IC50 for rat P2X2 receptor to IC50 for rat P2X2/3 receptor
quantityName: IC50 (µM)
Number in µM, nothing else.

Entry under review: Nc1c(S(=O)(=O)O)cc(Nc2ccc(S(=O)(=O)O)c(Nc3nc(Cl)nc(Cl)n3)c2)c2c1C(=O)c1ccccc1C2=O . Reported IC50?
0.0132

====

# targetUnderTest: UniProt:Q63371
# experimentSummary: Antagonist activity against rat P2Y6 receptor expressed in 1321N1 astrocytoma cells by calcium mobilization assay
quantityName: IC50 (µM)

Example cases with answers are listed next.
smilesCode: Nc1c(S(=O)(=O)O)cc(Nc2ccc(O)cc2)c2c1C(=O)c1ccccc1C2=O
targetUnderTest: UniProt:Q63371
unitsOfMeasure: µM
IC50: 5.3
//
smilesCode: Nc1c(S(=O)(=O)O)cc(Nc2cccc(Oc3ccccc3)c2)c2c1C(=O)c1ccccc1C2=O
targetUnderTest: UniProt:Q63371
unitsOfMeasure: µM
IC50: 4.56
//
smilesCode: Nc1c(S(=O)(=O)O)cc(Nc2ccc(Nc3nc(Cl)nc(Nc4cccc(S(=O)(=O)O)c4)n3)c(S(=O)(=O)O)c2)c2c1C(=O)c1ccccc1C2=O
targetUnderTest: UniProt:Q63371
unitsOfMeasure: µM
IC50: 4.34

(I) Nc1c(S(=O)(=O)O)cc(Nc2ccc(Nc3nc(Cl)nc(Cl)n3)cc2)c2c1C(=O)c1ccccc1C2=O
(II) Cc1cccc(Nc2cc(S(=O)(=O)O)c(N)c3c2C(=O)c2ccccc2C3=O)c1
(III) Nc1c(S(=O)(=O)O)cc(Nc2ccccc2)c2c1C(=O)c1ccccc1C2=O
(IV) Nc1c(S(=O)(=O)O)cc(Nc2cc(Nc3nc(Cl)nc(Cl)n3)cc(C(=O)O)c2)c2c1C(=O)c1ccccc1C2=O
Given 4 compounds, produce a descending ranking by IC50. // rank by listing labels in the order requested
III, I, II, IV
